studyTarget: T1, human MSLN-R2-his protein (human, UniProt Q13421 391-486)
T1 construct: Self-made in HEK293E cells; also called human MSLN-R2 protein; hMSLN-R2-his; not shown: His tag
T1 sequence (Q13421 other isoform, or with tags, fused parts or gaps): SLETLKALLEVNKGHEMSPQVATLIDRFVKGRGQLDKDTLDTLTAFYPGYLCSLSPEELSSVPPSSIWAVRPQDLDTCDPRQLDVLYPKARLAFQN
assayMethodText: ELISA on coated antigen, antibody 0.0001 nM
experimentalReadout: OD450 (OD450)
// return numeric value only (unit: OD450, not printed)

// solved cases for OD450 follow
# binder, OD450 / OD450
rows = [
    ("S009-F2.13.3 (antibody, human IgG1, kappa, V domains shown, Human-murine chimeric antibody: murine VH/VL on human IgG1 heavy and kappa light constant regions) VH: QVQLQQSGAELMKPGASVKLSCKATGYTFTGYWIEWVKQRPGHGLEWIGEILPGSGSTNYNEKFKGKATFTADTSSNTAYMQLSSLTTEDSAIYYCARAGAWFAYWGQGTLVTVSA VL: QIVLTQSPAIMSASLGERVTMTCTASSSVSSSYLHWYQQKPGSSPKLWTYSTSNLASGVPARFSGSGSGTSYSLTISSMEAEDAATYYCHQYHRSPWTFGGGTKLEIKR", 0.06),
    ("S009-F2.38.12 (antibody, human IgG1, kappa, V domains shown, Human-murine chimeric antibody: murine VH/VL on human IgG1 heavy and kappa light constant regions) VH: QVQLQQPGTELVKPGASVKLSCKASGYTFTSYWMHWVKQRPGQGLEWIGNINPSNGGTNYNEKIKNKATLTVDKSSSTAYMQLSSLTSEDSAVYYCARWNYYGNYPFDYWGQGTTLTVSS VL: DIVMTQSQKFMSTTVGDRVSITCKASQNVGTAVAWYQQKPGQSPKLLIYSASNRYTGVPDRFTGSGSGTDFTLTISNMQSEDLADYFCQQYSSYPLTFGAGTKLELKR", 0.05),
]

Dear colleague, I am looking for the recorded OD450 of the following binder: S009-F2.16.10 (antibody, human IgG1, kappa, V domains shown, Human-murine chimeric antibody: murine VH/VL on human IgG1 heavy and kappa light constant regions) VH: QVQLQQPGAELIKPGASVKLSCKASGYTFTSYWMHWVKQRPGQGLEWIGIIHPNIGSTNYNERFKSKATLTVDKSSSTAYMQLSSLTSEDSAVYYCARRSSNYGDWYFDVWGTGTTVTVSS VL: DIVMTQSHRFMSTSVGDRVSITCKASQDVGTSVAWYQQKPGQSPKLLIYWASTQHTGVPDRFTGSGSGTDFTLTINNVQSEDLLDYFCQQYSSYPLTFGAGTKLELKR
0.05
